Reference source: a collection of fitness landscapes (doi:10.1016/j.celrep.2020.107928)

A collection of variants and their measured one-hybrid fitness for binding NBS DNA
B1: Caulobacter ParB omega fusion; a variant is named by its letters at X, in order, B8GW30 (parent)
chain: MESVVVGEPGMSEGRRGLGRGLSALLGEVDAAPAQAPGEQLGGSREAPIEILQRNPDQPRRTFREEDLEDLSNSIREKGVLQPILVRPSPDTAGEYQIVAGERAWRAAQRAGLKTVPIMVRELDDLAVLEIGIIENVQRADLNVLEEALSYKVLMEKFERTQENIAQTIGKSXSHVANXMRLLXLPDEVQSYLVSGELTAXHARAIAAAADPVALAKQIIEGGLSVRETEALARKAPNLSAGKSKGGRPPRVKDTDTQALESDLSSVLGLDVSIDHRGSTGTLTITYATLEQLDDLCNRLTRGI

# Variants of: B1
# assay_summary: one-hybrid fitness for binding NBS DNA (the Noc-binding site; scaled: cognate 1, non-cognate 0); higher = stronger binding
# experimental_setup: with NBS DNA site
In all, about 81,000 sequences were measured (“one-hybrid fitness for binding NBS DNA”: median about -0.1, highest 2% from about 0.36 on). The full list was thinned out, with the highest values kept by preference.

Some solved cases for reference:
FAFR    0.364
FAAL    ≤ 0.2

Prompt: // Input: QANR . Output its one-hybrid fitness for binding NBS DNA only.
Response: 0.583

Prompt: // Input: QRDR . Output its one-hybrid fitness for binding NBS DNA only.
Response: 0.679

Prompt: // Input: QSKK . Output its one-hybrid fitness for binding NBS DNA only.
Response: 0.412

Prompt: // Input: QHAD . Output its one-hybrid fitness for binding NBS DNA only.
Response: ≤ 0.2
